# Method Summary: DAX1 (NR0B1) inhibitors on StAR promoter, primary screen, cell-based, luminescence, SF-1 (NR5A1), full-length DAX-1 (AID 652010);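 note: 0% = DAX-1 cells with DMSO and 100% = cells lacking DAX-1 with DMSO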
# Condition: HEK293T StAR-luciferase reporter, SF-1/DAX-1 repression relief; at 6.8 µM
The campaign covered roughly 370,000 compounds. About 4,100 (1.1%) were called active.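 Rule for the calls: active = inhibition above the mean over all tested compounds plus 3 SD (cut at about 3.6% in these data); inactive = the rest.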 This is one part of a sample in which actives are shown more often than they occur.
Possible outcomes: true (active), false (inactive)

{"Compound": "Cc1cc(N)n2nc(-c3ccc(C(C)(C)C)cc3)cc2n1", "Classification": "true"}
{"Compound": "COc1ccc(CCC(=O)OCC(=O)Nc2ccc(C)c(S(=O)(=O)N(C)C)c2)cc1", "Classification": "false"}
{"Compound": "CCCCCCNC(=O)O[C@]12C[C@@H](C(=O)OC)[C@@H](C(=O)OC)C[C@@]1(O)CN(S(=O)(=O)c1ccc(C)cc1)C2", "Classification": "false"}
{"Compound": "Cc1ccc(N/N=C2\\COC(C)(C)CC2=O)cc1", "Classification": "false"}
{"Compound": "Cc1ccc(S(=O)(=O)N2C[C@H]3n4c(=O)ccc(=O)n4C[C@H](OC(=O)NC4CCCC4)[C@@]3(O)C2)cc1", "Classification": "false"}
{"Compound": "CCOC(=O)[C@]12CCCCC/C=C\\1N(Cc1ccc(OC)cc1)C(=O)[C@H]2CC(=O)NCCCN1CCCC1=O", "Classification": "false"}
{"Compound": "CC(=O)Nc1ccc(OC[C@@H](O)CN2CCC(C(O)(c3ccccc3)c3ccccc3)CC2)cc1", "Classification": "false"}
{"Compound": "CC(C)CSc1nnc(-c2cccnc2)n1Cc1ccccc1", "Classification": "false"}
{"Compound": "O=C(NCc1cccs1)c1ccc2c(c1)ncn2C1CCCC1", "Classification": "false"}
{"Compound": "O=C(C1CCC(=O)N(C2CC2)C1)N1CCN(c2ccc(Cl)cc2)CC1 (stereo not given)", "Classification": "false"}

###

# Method Summary: DAX1 (NR0B1) inhibitors on StAR promoter, primary screen, cell-based, luminescence, SF-1 (NR5A1), full-length DAX-1 (AID 652010);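 note: 0% = DAX-1 cells with DMSO and 100% = cells lacking DAX-1 with DMSO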
# Condition: HEK293T StAR-luciferase reporter, SF-1/DAX-1 repression relief; at 6.8 µM
The campaign covered roughly 370,000 compounds. About 4,100 (1.1%) were called active.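 How the source made its calls: active means inhibition above the mean over all tested compounds plus 3 SD (cut at about 3.6% in these data); inactive means the rest.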 The entries come from a sample that favours actives as a whole.
Possible outcomes: Y = active, N = inactive

{"Molecule": "CCN(CC)C(=O)CC[C@H]1CC[C@]2(CCCN(Cc3ccc(Cl)cc3)C2)O1", "Classification": "N"}
{"Molecule": "C=CCN1C(=O)[C@@H](CC(=O)NCCCOCCCC)[C@]2(C(=O)OCC)CCCCC/C=C/12", "Classification": "N"}
{"Molecule": "Nc1nonc1-n1nnc(C(=O)N/N=C/c2ccc(Cl)cc2)c1-c1ccc2c(c1)OCO2", "Classification": "N"}
{"Molecule": "O=C(NCCc1ccccn1)c1nc(Cn2cc([N+](=O)[O-])cn2)no1", "Classification": "N"}
{"Molecule": "COc1ccc(C(CNC(=O)c2cccc(NS(=O)(=O)c3ccc(C)c(F)c3)c2)N2CCCC2)cc1 (stereo not given)", "Classification": "N"}
{"Molecule": "FC(F)(F)c1cccc(Cn2ccc3ccc(-c4ccc5ccn(Cc6ccccc6)c5c4)cc32)c1", "Classification": "N"}
{"Molecule": "Cc1ccc(-c2nc(-c3cccnc3)sc2CC(=O)Nc2ccc(C)c(Cl)c2)cc1", "Classification": "N"}
{"Molecule": "CN(C)S(=O)(=O)c1cc(C(=O)Nc2ccn(C)n2)c(Cl)cc1Cl", "Classification": "N"}
{"Molecule": "CCOC(=O)c1c(C)[nH]c(C2=NNC(=NC(C)COC)SC2)c1C (stereo not given)", "Classification": "Y"}
{"Molecule": "O=C(CSc1nc2ccccc2n1Cc1ccccc1Cl)N/N=C\\c1c[nH]c2ccccc12", "Classification": "N"}
{"Molecule": "C=C(C)C#CC(Cc1ccccc1)N(CC1CC1)/C(N)=N/C(=O)OCc1ccccc1 (stereo not given)", "Classification": "N"}
{"Molecule": "COC(=O)C[C@@H]1CC[C@@H]2[C@H](COc3ccc(NC(=O)c4cccc(F)c4)cc3C(=O)N2C)O1", "Classification": "N"}
{"Molecule": "CC(=O)NC1(c2ccc(F)cc2)CCN(C(=O)c2c(F)cccc2F)CC1", "Classification": "N"}
{"Molecule": "COC(=O)C1[C@H]2SC(C)(C)C(C(=O)OC)N2C(=O)N1Cc1nc2ccccc2s1 (stereo not given in full)", "Classification": "N"}
{"Molecule": "O=C(NCC(=O)N1CCCCCCC1)c1ccccc1Cl", "Classification": "N"}
{"Molecule": "Cc1cnc(C(=O)OCC(=O)NCCCc2ccccc2)cn1", "Classification": "N"}
{"Molecule": "O=C(NCC(=O)N1CCCC(C(F)(F)F)C1)c1ccccc1F (stereo not given)", "Classification": "Y"}
{"Molecule": "Clc1ccc(C(Cn2ccnc2)OCc2ccsc2Cl)c(Cl)c1 (stereo not given)", "Classification": "N"}
{"Molecule": "COC(=O)[C@H](C(C)C)N1CCc2nnn(Cc3ccc(C)cc3)c2-c2ccccc2S1(=O)=O", "Classification": "N"}
{"Molecule": "Cc1ccc(NS(=O)(=O)c2cc3c(cc2Br)NC(=O)CO3)cc1C", "Classification": "N"}
{"Molecule": "COC(=O)[C@H](C(C)C)N(CCc1cn(Cc2ccccc2)nn1)S(=O)(=O)c1ccc(F)cc1Br", "Classification": "N"}
{"Molecule": "O=C(CSCc1ccccc1)N1CCc2ccccc21", "Classification": "Y"}
{"Molecule": "Clc1ccc(Nc2ccc3ccccc3n2)cc1", "Classification": "N"}
{"Molecule": "COc1ccc(C(CNC(=O)c2cc(S(=O)(=O)Nc3cccc(C)c3)ccc2C)N2CCCC2)cc1 (stereo not given)", "Classification": "Y"}
{"Molecule": "CC(C)CNc1cccc2c1S(=O)(=O)N(Cc1cn(Cc3ccccc3C(F)(F)F)nn1)Cc1ccccc1O2", "Classification": "N"}
{"Molecule": "O=C(COC(=O)c1ccc2ncsc2c1)Nc1ccc(Cl)cc1", "Classification": "N"}
{"Molecule": "CCC(=O)Nc1ccc2c(c1)C(=O)N(C)[C@@H]1CC[C@@H](CC(=O)NCCc3ccccc3)O[C@H]1CO2", "Classification": "N"}
{"Molecule": "COc1ccc(NS(=O)(=O)c2ccc(C)c(C(=O)NCC(c3cccs3)N3CCOCC3)c2)cc1 (stereo not given)", "Classification": "N"}
{"Molecule": "CN(C)c1ccc(NC(=O)CSc2n[nH]c(-c3ccco3)n2)cc1", "Classification": "N"}
{"Molecule": "COC(=O)c1ccc(CN2C(=O)[C@]3(OCCC=C[C@H]3C)c3c(Br)cccc32)cc1", "Classification": "N"}
{"Molecule": "Cc1ccc(NC(=O)Cc2cccc(F)c2)c(S(=O)(=O)N2CCOCC2)c1", "Classification": "N"}
{"Molecule": "CCc1ccc(-c2nnn(Cc3nc4ccccc4s3)n2)cc1", "Classification": "N"}
{"Molecule": "O=C(CCCCCN1C(=O)C2C3C=CC(C3)C2C1=O)Nc1ccccc1 (stereo not given)", "Classification": "N"}
{"Molecule": "Cc1ccc(C(=O)Nc2nc(N)n(-c3ccccc3)n2)cc1", "Classification": "N"}
{"Molecule": "COc1ccc(C(=O)OCCN2CCN(C3CN(Cc4cn(Cc5ccccc5F)nn4)S(=O)(=O)C3)CC2)cc1OC (stereo not given)", "Classification": "N"}
{"Molecule": "Cc1cccc(NC(=O)C[C@H]2CC[C@H]3[C@@H](COc4ccc(NC(=O)Nc5ccccc5)cc4C(=O)N3C)O2)c1", "Classification": "N"}
{"Molecule": "O=C(c1cccc(C(F)(F)F)c1)N1CC[C@H]2[C@H](CCCN2Cc2cc(F)cc(F)c2)C1", "Classification": "N"}
{"Molecule": "O=C(CN1C(=O)c2ccccc2S1(=O)=O)N1CCc2ccccc21", "Classification": "N"}
{"Molecule": "Cc1ccc(C(=O)Nc2ccn(C)n2)cc1", "Classification": "Y"}
{"Molecule": "C(=N\\Nc1ccc2ccccc2n1)/c1ccc2c(c1)OCO2", "Classification": "Y"}

###

Reported inhibition is given for each of the following compounds.
# Method Summary: DAX1 (NR0B1) inhibitors on StAR promoter, primary screen, cell-based, luminescence, SF-1 (NR5A1), full-length DAX-1 (AID 652010);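 note: 0% = DAX-1 cells with DMSO and 100% = cells lacking DAX-1 with DMSO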
# Condition: HEK293T StAR-luciferase reporter, SF-1/DAX-1 repression relief; at 6.8 µM; active compounds read high
Hit rate of the full screen: of about 370,000 compounds, about 4,100 (1.1%) were called active. The sample as a whole holds a higher share of actives than the screen did.

{"Compound": "COc1ccc(C(=O)OCCN(C)C2CN(Cc3cn(Cc4cccc(C)c4)nn3)S(=O)(=O)C2)cc1OC (stereo not given)", "Readout Unit": "%", "inhibition": -0.33}
{"Compound": "O=C(CSc1nnc(-c2ccccc2)n1Cc1ccco1)Nc1ccccc1-c1ccccc1", "Readout Unit": "%", "inhibition": -1.32}
{"Compound": "O=C(Nc1ccc2c(c1)CCC2)c1ccc(Br)s1", "Readout Unit": "%", "inhibition": 11.2}
{"Compound": "CC(=O)N1CCc2cc(S(=O)(=O)NCCC(=O)N3CCCC3)ccc21", "Readout Unit": "%", "inhibition": -1.5}
{"Compound": "CC1CC(C)CN(CCC(=O)Nc2ccc3c(c2)CCC3)C1 (stereo not given)", "Readout Unit": "%", "inhibition": -0.49}
